We begin with a simple list: items and their reported BRM Max % Inhibition.
# targetOfAssay: BRM (Homo sapiens, UniProt P51531)
# Construct: made in house; host or cells: High Five insect cells
# Sequence (P51531 whole entry): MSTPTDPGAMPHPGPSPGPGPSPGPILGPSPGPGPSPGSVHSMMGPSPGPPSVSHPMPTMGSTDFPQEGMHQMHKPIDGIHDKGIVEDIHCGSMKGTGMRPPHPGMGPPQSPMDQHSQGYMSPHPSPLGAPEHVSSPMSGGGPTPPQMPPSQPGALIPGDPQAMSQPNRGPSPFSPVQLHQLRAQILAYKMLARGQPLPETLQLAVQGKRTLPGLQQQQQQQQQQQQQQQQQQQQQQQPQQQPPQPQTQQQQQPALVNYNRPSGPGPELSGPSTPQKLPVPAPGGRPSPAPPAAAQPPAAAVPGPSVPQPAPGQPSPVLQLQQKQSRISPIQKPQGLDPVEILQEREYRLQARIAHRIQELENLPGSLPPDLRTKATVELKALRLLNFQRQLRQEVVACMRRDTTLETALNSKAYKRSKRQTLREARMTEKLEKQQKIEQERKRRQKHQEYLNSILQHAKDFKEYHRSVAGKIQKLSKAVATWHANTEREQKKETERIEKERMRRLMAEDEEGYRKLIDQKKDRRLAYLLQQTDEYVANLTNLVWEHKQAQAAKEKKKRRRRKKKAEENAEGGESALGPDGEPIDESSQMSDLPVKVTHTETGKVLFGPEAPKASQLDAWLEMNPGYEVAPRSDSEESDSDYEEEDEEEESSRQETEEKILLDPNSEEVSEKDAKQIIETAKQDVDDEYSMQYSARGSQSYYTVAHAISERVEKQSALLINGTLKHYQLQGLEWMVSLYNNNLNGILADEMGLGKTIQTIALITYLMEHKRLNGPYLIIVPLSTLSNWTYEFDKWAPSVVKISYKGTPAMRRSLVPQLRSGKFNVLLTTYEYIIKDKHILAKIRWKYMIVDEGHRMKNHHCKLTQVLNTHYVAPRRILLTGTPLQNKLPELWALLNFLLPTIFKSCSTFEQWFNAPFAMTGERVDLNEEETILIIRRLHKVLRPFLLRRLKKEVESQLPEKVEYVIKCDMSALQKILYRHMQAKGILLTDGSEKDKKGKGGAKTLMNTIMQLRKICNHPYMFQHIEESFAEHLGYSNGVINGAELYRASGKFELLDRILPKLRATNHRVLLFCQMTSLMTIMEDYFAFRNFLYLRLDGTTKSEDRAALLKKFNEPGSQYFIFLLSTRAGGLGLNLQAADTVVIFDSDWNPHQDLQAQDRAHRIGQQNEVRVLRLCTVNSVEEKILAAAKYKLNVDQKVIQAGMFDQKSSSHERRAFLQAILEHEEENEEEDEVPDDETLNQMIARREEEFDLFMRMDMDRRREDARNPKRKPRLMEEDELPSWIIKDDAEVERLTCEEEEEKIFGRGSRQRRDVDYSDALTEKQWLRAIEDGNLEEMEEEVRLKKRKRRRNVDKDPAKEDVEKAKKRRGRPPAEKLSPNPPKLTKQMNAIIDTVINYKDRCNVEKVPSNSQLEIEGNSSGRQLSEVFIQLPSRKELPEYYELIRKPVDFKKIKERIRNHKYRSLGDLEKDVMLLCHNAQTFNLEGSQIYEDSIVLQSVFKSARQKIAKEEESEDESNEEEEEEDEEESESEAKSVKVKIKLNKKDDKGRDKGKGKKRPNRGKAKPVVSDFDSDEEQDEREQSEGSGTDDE
# method: ATPase catalytic activity assay (ADP-Glo), BRM
# Assay type: biochemical
# conditionDetails: 30 nM BRM, 400 μM ATP

>>> valuereported("Cc1cc(C(=O)NCC(=O)Nc2nc(-c3cccc(N4C[C@@H](C)O[C@@H](C)C4)c3)cs2)cn1S(=O)(=O)C(C)C")
">95%"
>>> valuereported("CC(C)S(=O)(=O)n1cc(C(=O)NCC(=O)Nc2nc(-c3cccc(N4CCC(O)CC4)c3)cs2)cc1Cl")
">80%"
>>> valuereported("Cc1nccc(-c2cccc(-c3csc(NC(=O)CNC(=O)c4cc(Cl)n(S(=O)(=O)C(C)C)c4)n3)c2)n1")
">95%"

Attention now turns to another entry.
Name the recorded BRM Max % Inhibition for Cc1nccc(-c2cccc(-c3csc(NC(=O)CNC(=O)c4cn(S(C)(=O)=O)c5c4CCCC5)n3)n2)n1 .
>70%

###

We begin with a simple list: items and their reported Emax.
# targetOfAssay: BRG-1 (Homo sapiens)
# Construct: made in house; host or cells: High Five insect cells
# Sequence (P51532 whole entry): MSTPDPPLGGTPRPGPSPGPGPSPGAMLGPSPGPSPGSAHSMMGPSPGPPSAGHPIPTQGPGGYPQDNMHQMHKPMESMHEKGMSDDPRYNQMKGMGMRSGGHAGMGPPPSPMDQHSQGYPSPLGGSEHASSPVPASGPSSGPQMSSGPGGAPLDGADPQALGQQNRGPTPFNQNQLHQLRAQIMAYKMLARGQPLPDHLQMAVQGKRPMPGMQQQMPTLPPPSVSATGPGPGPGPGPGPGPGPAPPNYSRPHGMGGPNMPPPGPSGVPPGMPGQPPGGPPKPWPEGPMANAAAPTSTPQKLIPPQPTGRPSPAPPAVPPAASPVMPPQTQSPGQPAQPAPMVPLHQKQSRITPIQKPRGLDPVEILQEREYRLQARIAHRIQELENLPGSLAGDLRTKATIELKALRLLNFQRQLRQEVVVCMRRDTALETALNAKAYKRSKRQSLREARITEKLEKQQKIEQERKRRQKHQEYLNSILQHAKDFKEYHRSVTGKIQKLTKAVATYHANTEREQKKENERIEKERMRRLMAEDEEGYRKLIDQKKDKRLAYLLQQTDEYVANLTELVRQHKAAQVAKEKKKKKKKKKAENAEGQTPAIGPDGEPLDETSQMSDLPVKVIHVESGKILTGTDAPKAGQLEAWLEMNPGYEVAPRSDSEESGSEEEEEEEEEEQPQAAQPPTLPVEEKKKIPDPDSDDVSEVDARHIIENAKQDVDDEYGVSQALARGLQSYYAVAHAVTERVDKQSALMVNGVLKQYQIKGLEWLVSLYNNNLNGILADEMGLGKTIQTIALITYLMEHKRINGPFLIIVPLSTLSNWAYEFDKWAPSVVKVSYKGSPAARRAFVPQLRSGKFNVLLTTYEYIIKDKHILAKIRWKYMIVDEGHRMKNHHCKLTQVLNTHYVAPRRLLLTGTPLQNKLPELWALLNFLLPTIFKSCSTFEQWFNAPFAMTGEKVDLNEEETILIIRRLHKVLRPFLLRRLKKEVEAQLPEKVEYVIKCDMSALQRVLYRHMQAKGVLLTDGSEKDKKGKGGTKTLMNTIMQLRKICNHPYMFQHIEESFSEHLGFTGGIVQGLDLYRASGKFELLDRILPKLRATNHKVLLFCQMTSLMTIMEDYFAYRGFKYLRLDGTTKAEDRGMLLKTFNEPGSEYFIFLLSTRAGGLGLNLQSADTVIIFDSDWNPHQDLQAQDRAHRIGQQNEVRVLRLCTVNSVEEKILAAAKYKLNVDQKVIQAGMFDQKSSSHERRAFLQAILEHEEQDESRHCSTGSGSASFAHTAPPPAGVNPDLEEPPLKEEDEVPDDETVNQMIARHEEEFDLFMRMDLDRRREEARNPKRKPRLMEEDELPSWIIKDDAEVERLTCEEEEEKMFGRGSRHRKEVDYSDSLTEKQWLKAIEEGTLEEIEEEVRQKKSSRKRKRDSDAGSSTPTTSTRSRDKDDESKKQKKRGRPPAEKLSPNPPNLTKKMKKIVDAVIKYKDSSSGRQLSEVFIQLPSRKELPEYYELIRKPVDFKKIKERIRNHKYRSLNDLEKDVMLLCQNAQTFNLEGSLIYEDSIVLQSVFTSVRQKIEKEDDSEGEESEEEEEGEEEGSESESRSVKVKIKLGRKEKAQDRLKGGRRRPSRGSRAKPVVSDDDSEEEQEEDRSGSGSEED
# method: ATPase catalytic activity assay (ADP-Glo), BRG-1
# Format: biochemical
# conditionDetails: 30 nM BRG-1, 400 μM ATP, read-out: BRG1 Max % Inhibition

Example compounds with recorded Emax:
>>> valuereported("CC(C)S(=O)(=O)n1cc(C(=O)NCC(=O)Nc2nc(-c3cccc(N4C[C@@H](C)O[C@@H](C)C4)c3)cs2)c2ccccc21")
"< 30%"
>>> valuereported("Cc1c(C(=O)NCC(=O)Nc2nc(-c3cccc(-c4ccncc4)c3)cs2)cn(S(C)(=O)=O)c1C")
"> 80%"
>>> valuereported("CC(C)S(=O)(=O)n1cc(C(=O)NCC(=O)Nc2nc(-c3cc(F)cc(N4C[C@@H](C)O[C@@H](C)C4)c3)cs2)c2ccccc21")
"< 30%"
>>> valuereported("CS(=O)(=O)n1cc(C(=O)NCC(=O)Nc2nc(-c3cccc(-c4ccncc4)c3)cs2)c2ccncc21")
"> 70%"
>>> valuereported("Cc1cc(-c2cccc(-c3csc(NC(=O)CNC(=O)c4cc(CO)n(S(=O)(=O)C(C)C)c4)n3)c2)cc(C)n1")
"> 80%"
>>> valuereported("Cc1cn(S(C)(=O)=O)cc1C(=O)NCC(=O)Nc1nc(-c2cccc(-c3ccncc3)c2)cs1")
"> 60%"
>>> valuereported("CC(C)S(=O)(=O)n1cc(C(=O)NCC(=O)Nc2nc(-c3cccc(N4CCC(O)CC4)c3)cs2)cc1Cl")
"> 50%"
>>> valuereported("C[C@@H]1CN(c2cccc(-c3csc(NC(=O)CNC(=O)c4cn(S(C)(=O)=O)c5c4CCCC5)n3)c2)C[C@H](C)O1")
"> 40%"
>>> valuereported("Cc1cc(-c2cccc(-c3csc(NC(=O)CNC(=O)c4cc(C5CC5)n(S(C)(=O)=O)c4)n3)c2)cc(C)n1")
"> 80%"
>>> valuereported("CS(=O)(=O)n1cc(C(=O)NCC(=O)Nc2nc(-c3cccc(-c4ccncc4)c3)cs2)c2ccccc21")
"< 30%"

Name the recorded Emax for Cc1cc(-c2cccc(-c3csc(NC(=O)CNC(=O)c4cn(S(=O)(=O)C(C)C)c(C)c4C)n3)c2)nc(C)n1 .
> 90%

Name the recorded Emax for Cc1nccc(-c2cccc(-c3csc(NC(=O)CNC(=O)c4cn(S(=O)(=O)C(C)C)c(C)c4C)n3)c2)n1 .
> 80%

Name the recorded Emax for CS(=O)(=O)n1cc(C(=O)NCC(=O)Nc2nc(-c3cccc(-c4ccncc4)c3)cs2)c2c1CCCC2 .
< 30%

Name the recorded Emax for Cc1cc(-c2cccc(-c3csc(NC(=O)CNC(=O)c4cn(S(C)(=O)=O)c5c4CCCC5)n3)c2)cc(C)n1 .
> 80%
